assay.method.text: Pharmacokinetic study, oral and i.v. route
Format: in vivo, swiss mice
assay.context: both sexes, Swiss, mouse, plasma; mice, oral, 20 mg/kg
readout.name: AUC (ng·h/mL)
Write it as a number; the unit ng·h/mL goes unstated.

Task: Item COc1ccc(C(c2[nH]c3ccccc3c2CC(=O)O)c2[nH]c3ccccc3c2CC(=O)O)cc1Oc1nc(NC2CC2)nc(NC2CC2)n1 [Compound 7] : provide AUC
Result: 503
